# tested_system: RORγ-LBD (Homo sapiens, UniProt P51449)
# Construct: made in house; host or cells: SF9 cells (baculovirus); used as diluted lysate
# Sequence (P51449 269-508 limits assumed): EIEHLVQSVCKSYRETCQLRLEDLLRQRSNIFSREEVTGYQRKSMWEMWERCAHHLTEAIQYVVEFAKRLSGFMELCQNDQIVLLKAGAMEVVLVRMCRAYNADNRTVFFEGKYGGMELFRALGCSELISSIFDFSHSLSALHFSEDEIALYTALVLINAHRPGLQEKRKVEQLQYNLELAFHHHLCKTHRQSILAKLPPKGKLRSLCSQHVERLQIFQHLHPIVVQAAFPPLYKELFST
# measurement_protocol: RORγ-Ligand Binding Domain (LBD) TR-FRET Assay
# Format: biochemical
# applied_conditions: RORγ-LBD TR-FRET
Assignment: determine reported EC50 for the given molecules.

-- ask Give the reported EC50 for this molecule. CCCn1ccc(/C=C/c2ccc3c(c2)N(S(=O)(=O)c2cccc(C(F)(F)F)c2)C[C@H](CCC(=O)O)O3)n1 [Example 89BZ]
-- reply > 10000 nM

-- ask Supply reported EC50 belonging to this molecule: O=C(O)CC[C@H]1CN(S(=O)(=O)c2cccc(OC(F)F)c2)c2cc(/C=C/c3c(F)cccc3Cl)ccc2O1 [Example 89A]
-- reply < 500 nM

-- ask Read off the recorded EC50 for C/C(=C\c1ccc2c(c1C)N(S(=O)(=O)c1cccc(OC(F)F)c1)C[C@H](CCC(=O)O)O2)c1c(F)cccc1Cl
-- reply < 500 nM

-- ask Provide one value: measured EC50 of CCOc1nn(CC)cc1S(=O)(=O)N1C[C@H](CCC(=O)OC)Oc2ccc(/C=C/c3ccccc3SC)cc21 [Example 89AV]
-- reply < 500 nM

====

Record form. Attribute: EC50. Fill in for each entry.
# tested_system: RORγ-LBD (Homo sapiens, UniProt P51449)
# Construct: made in house; host or cells: SF9 cells (baculovirus); used as diluted lysate
# Sequence (P51449 269-508 limits assumed): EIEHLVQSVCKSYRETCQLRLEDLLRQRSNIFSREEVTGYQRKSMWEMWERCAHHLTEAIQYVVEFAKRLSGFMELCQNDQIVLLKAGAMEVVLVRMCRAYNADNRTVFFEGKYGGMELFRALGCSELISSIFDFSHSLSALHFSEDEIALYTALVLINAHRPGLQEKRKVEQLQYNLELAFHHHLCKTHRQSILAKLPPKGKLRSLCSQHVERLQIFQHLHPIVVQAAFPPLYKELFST
# measurement_protocol: RORγ-Ligand Binding Domain (LBD) TR-FRET Assay
# Type: biochemical
# applied_conditions: RORγ-LBD TR-FRET

-- ask Retrieve EC50 measured for C/C(=C\c1cc2c(cc1Cl)O[C@@H](CCC(=O)O)CN2S(=O)(=O)c1cccc(OC(F)F)c1)c1c(F)cccc1Cl and print it.
-- reply 500 to 5000 nM

-- ask State its EC50: O=C(O)CC[C@H]1CN(S(=O)(=O)c2cccc(C(F)(F)F)c2)c2cc(/C=C/c3c(Cl)cccc3C(F)F)ccc2O1 [Example 89EN]
-- reply < 500 nM

-- ask Give me measured EC50, please, for this molecule: Cc1noc(C)c1/C=C/c1ccc2c(c1)N(S(=O)(=O)c1cccc(C(F)(F)F)c1)C[C@H](CCC(=O)O)O2 [Example 89BR]
-- reply > 10000 nM

-- ask Tell me EC50 reported for COC(=O)CC[C@H]1CN(S(=O)(=O)c2c(Cl)nc3sccn23)c2cc(/C=C(\C)c3c(F)cccc3Cl)ccc2O1 [Example 86V]
-- reply < 500 nM

-- ask Find the measured EC50 of CCOc1nn(CC)cc1S(=O)(=O)N1C[C@H](CCC(=O)O)Oc2ccc(/C=C/c3ncccc3F)cc21 [Example 89W] and report it.
-- reply 5000 to 10000 nM

-- ask Identify measured EC50 associated with O=C(O)CC[C@H]1CN(S(=O)(=O)c2cccc(C(F)(F)F)c2)c2cc(C=C3CCC(F)(F)CC3)ccc2O1 [Example 95L]
-- reply < 500 nM

-- ask Give me measured EC50, please, for this molecule: C/C(=C\c1ccc2c(c1)N(S(=O)(=O)c1cncc(C(F)(F)F)c1)C[C@H](CCC(=O)O)O2)c1c(F)cccc1Cl
-- reply < 500 nM

Reference source for all entries: patent US9896441B2
